# tested.target: Homeodomain-interacting protein kinase 2 (Homo sapiens)
# experimental.setup: at 1 µM
Entries and their measured residual activity follow.
Reply with just the number (in %).

Field: example entries. Status: answers known.
INSERT INTO assay_data (cpd_smiles, endpoint_result) VALUES
  ('CCOc1cc2ncnc(Nc3cccc(Br)c3)c2cc1OCC', 100),
  ('O=C(Nc1cccc(Nc2cc(Nc3cccc(C(F)(F)F)c3)ncn2)c1)C1CC1', 110),
  ('O=C1c2ccccc2-[n+]2ccc3c([nH]c4ccccc43)c21', 96),
  ('Cc1nc(-c2ccccc2)c(-c2ccncc2)o1', 94),
  ('O=[N+]([O-])c1ccc(-c2nc(-c3ccc(F)cc3)c(-c3ccncc3)[nH]2)cc1', 107);

Field residual activity (entry c1ccc2c(-c3ccncc3)c[nH]c2c1 ) reads 100

Field residual activity (entry c1ccc(-c2n[nH]c3c2oc2ccccc23)cc1 ) reads 98

* * *

# tested.target: Mitogen-activated protein kinase 14 (Homo sapiens)
# experimental.setup: at 1 µM
Please enter rule met where residual activity is greater than or equal to 90%, and rule not met where it is lower.

INSERT INTO measurements (cpd_smiles, discrete_label) VALUES
  ('CNc1cc2c(Nc3cccc(Br)c3)ncnc2cn1', 'rule not met'),
  ('Oc1n[nH]c2nnc(-c3c(-c4ccccc4)nn4ccccc34)cc12', 'rule met'),
  ('COc1cccc(-c2cc(=O)c3ccccc3o2)c1N', 'rule not met'),
  ('O=C(Nc1cccc(Nc2cc(Nc3cccc(C(F)(F)F)c3)ncn2)c1)C1CC1', 'rule not met'),
  ('Cc1ccc(NC2=CC(=O)c3sc(C)nc3C2=O)cc1', 'rule met'),
  ('Cc1cc2ncc(-c3ccccc3)nc2cc1C', 'rule not met'),
  ('Cc1ccc(S(=O)(=O)/C=C/C#N)cc1', 'rule met'),
  ('O=C(O)c1ccc2c3c1cccc3c(=O)n1c3ccccc3nc21', 'rule met');

Assess whether reported residual activity for N#Cc1cnc2cnc(NCc3cccnc3)cc2c1Nc1ccc(F)c(Cl)c1 sits at 90% or higher. rule not met

Assess whether reported residual activity for O=C1c2ccccc2-[n+]2ccc3c([nH]c4ccccc43)c21 sits at 90% or higher. rule not met

Assess whether reported residual activity for Cc1cncc2cccc(S(=O)(=O)N3CCCN(C(=O)CN)C[C@H]3C)c12 sits at 90% or higher. rule not met

* * *

# tested.target: Tyrosine-protein kinase HCK (Homo sapiens) (UniProt P08631)
# Sequence (P08631 2-526 limits assumed): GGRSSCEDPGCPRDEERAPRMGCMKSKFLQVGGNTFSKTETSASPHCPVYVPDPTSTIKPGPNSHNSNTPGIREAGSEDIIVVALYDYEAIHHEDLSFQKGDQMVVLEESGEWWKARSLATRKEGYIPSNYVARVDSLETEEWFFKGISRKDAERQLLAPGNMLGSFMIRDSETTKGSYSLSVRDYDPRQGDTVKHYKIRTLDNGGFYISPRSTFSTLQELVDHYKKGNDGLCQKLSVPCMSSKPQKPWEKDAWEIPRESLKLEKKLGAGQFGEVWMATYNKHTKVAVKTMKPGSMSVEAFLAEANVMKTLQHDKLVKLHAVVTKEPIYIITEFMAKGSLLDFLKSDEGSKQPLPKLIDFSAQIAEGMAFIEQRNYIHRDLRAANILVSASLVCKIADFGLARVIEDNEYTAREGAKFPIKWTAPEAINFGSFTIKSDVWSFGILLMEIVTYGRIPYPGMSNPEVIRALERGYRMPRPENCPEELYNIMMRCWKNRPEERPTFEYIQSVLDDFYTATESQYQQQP
# experimental.setup: at 10 µM
Entries and their measured residual activity follow.
Reply with just the number (in %).

Field: example entries. Status: answers known.
INSERT INTO results (cpd_smiles, quantity_name, endpoint_result) VALUES
  ('O=C1NC(=O)/C(=C/c2ccc3c(c2)OC(F)(F)O3)S1', 'residual activity', 94),
  ('COc1cc2ncnc(N3CCN(C(=O)Nc4ccc(Oc5ccccc5)cc4)CC3)c2cc1OC', 'residual activity', 85),
  ('N#Cc1cnc2cnc(NCc3cccnc3)cc2c1Nc1ccc(F)c(Cl)c1', 'residual activity', 91),
  ('CCOc1cc2ncnc(Nc3cccc(Br)c3)c2cc1OCC', 'residual activity', 4);

Field residual activity (entry COc1ccc(OC)c2c(=S)c3ccccc3[nH]c12 ) reads 95

Field residual activity (entry CC(C)n1cnc2c(NCc3ccccc3)nc(NCCCO)nc21 ) reads 81

* * *

# tested.target: Death-associated protein kinase 3 (Homo sapiens) (UniProt O43293)
# Sequence (O43293 whole entry, looked up): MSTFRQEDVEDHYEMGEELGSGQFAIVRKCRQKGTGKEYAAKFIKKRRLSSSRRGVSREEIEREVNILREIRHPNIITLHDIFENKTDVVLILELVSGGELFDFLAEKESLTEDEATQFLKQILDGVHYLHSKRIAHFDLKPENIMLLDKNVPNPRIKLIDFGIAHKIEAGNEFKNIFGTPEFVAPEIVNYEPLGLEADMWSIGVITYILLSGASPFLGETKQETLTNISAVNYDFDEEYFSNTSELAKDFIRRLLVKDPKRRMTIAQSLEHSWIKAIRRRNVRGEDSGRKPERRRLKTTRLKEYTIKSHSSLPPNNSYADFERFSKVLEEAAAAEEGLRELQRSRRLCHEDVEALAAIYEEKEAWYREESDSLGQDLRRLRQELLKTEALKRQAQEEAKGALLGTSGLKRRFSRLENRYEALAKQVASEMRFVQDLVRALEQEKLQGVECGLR
# experimental.setup: at 10 µM
Lab note: compare residual activity with 90%, writing MET if less and NOT MET if equal or more.

Below, 5 compounds whose answers are already recorded.
INSERT INTO measurements (cpd_smiles, tested_target, discrete_label) VALUES
  ('Ic1cccc(CSc2nnc(-c3ccncc3)o2)c1', 'Death-associated protein kinase 3 (Homo sapiens) (UniProt O43293)', 'NOT MET'),
  ('COc1ccc(C(=O)Nc2sc3c(c2C(N)=O)CCCC3)cc1OC', 'Death-associated protein kinase 3 (Homo sapiens) (UniProt O43293)', 'NOT MET'),
  ('O=c1c2ccccc2[nH]c(=S)n1CCN1CCC(=C(c2ccc(F)cc2)c2ccc(F)cc2)CC1', 'Death-associated protein kinase 3 (Homo sapiens) (UniProt O43293)', 'MET'),
  ('O=Nc1c(-c2c(O)[nH]c3ccccc23)[nH]c2ccccc12', 'Death-associated protein kinase 3 (Homo sapiens) (UniProt O43293)', 'MET'),
  ('Cc1ccc(NC2=CC(=O)c3sc(C)nc3C2=O)cc1', 'Death-associated protein kinase 3 (Homo sapiens) (UniProt O43293)', 'MET');

Answer whether the compound O=C(O)c1ccc2c3c1cccc3c(=O)n1c3ccccc3nc21 has residual activity strictly less than 90% MET
